measurement-notes: NCI Yeast Anticancer Drug Screen. Data for the bub3 strain (AID 167)
setup-conditions: S. cerevisiae bub3 mutant strain, at 50.0 µM (retest, dose inferred, filed as 5.0), stronger effect = higher value
Compounds without any hit were thinned out: in the full panel of roughly 79,000, 15% have a hit.
Recorded growth inhibition for the following molecules
The response must be a number in % with no trailing unit.

| chemical-smiles | experimental-endpoint | unit | result-number |
| --- | --- | --- | --- |
| O=C1c2cccc(O)c2C(=O)c2c(O)cccc21 | growth inhibition | % | 62 |
| Nc1cc2ccc(O)cc2c2ccccc12 | growth inhibition | % | 89 |

Input line: What value of growth inhibition has been reported for the following molecule? CC(C)(C)c1ccc(-c2c3ccccc3cc3ccccc23)cc1
Output line: 16

Input line: For CCC(C)(C)c1cc(O)c(C(C)(C)CC)cc1O then?
Output line: 91

----------
measurement-notes: NCI Yeast Anticancer Drug Screen. Data for the mlh1 rad18 strain (AID 175)
setup-conditions: S. cerevisiae mlh1 rad18 strain growth inhibition; at 50.0 µM (retest, dose inferred, filed as 5.0)
Method: Growth inhibition of yeast strains with defined genetic alterations is measured as a screen for potential anti-cancer activity. Selected strains with alterations in DNA damage repair or cell cycle control were exposed to compounds and growth inhibition was measured relative to vehicle treated controls. The strain used in this assay is mlh1 rad18
About 79,000 compounds went through this panel and 15% of them were active in at least one assay; those are over-represented in the sample as a whole. The source made the active and inactive calls. Cut-off read from the data, not from the text of the source: active = growth inhibition above about 70%; inactive = the rest.
# valid calls are Yes (active), No (inactive); nothing else

Examples from the recorded data:
| compound | discrete-label |
| --- | --- |
| COc1ccc2nc(C)cc(NCCCCCCCCCNc3cc(C)nc4ccc(OC)cc34)c2c1 | Yes |
| CCC(=O)OCOc1ccc(/C=C2\CCC(CN(C)C)C2=O)cc1 (stereo not drawn) | No |
| COc1cccc(OCCC#N)c1 | No |
| COc1cc2c(c(OC)c1OC)-c1ccc(SC)c(=O)cc1C(NC(=O)c1ccccc1)CC2 (stereo not drawn) | Yes |
| O=C1C=CC(=O)C(c2ccc3ccccc3c2)=C1 | Yes |
| COC(=O)[C@]1(C)CCC[C@]2(C)c3cc(C(C)=O)c(C(C)C)cc3CC[C@@H]12 | No |
| O=C1/C(=C/c2ccc(Cl)cc2)Sc2scc(-c3cccc([N+](=O)[O-])c3)[n+]21 | Yes |
| Oc1cccc2c1-c1ccccc1C2 | Yes |
| CC(=O)OCC1OC(n2c(C)c(C(C)=O)c(-c3ccco3)c(C#N)c2=S)C(OC(C)=O)C(OC(C)=O)C1OC(C)=O (stereo not drawn) | No |
| COc1ccc2cc(C(C)=O)c3ccccc3c2c1 | Yes |

Input line: What did the test return for O=C1C(CN2CCCCC2)CCCC1CN1CCCCC1 (stereo not drawn) ?
Output line: No

Input line: Same lookup for Oc1c(Cl)c(Cl)c(Cl)c2ccccc12 , please.
Output line: Yes

Input line: Item: CC(=O)[O-].[O-]c1c(Cl)cc(Cl)cc1/C=N/Nc1ccccn1.[Zn+2]
Output line: Yes

----------
measurement-notes: NCI Yeast Anticancer Drug Screen. Data for the mlh1 rad18 strain (AID 175)
setup-conditions: S. cerevisiae mlh1 rad18 strain growth inhibition; at 50.0 µM; stronger effect = higher value
This is part of a sample that, as a whole, favours compounds with a hit. Of some 79,000 tested, about 15% had one in any assay.
Here, each record is paired with measured growth inhibition data.
Give a bare numeral; the unit % is implied.

For orientation, consider the following solved cases.
| chemical-smiles | result-number |
| --- | --- |
| CC(C)(C)OC(=O)NCCc1cccc2c1oc1c(CCC(=O)O)cccc12 | 83.5 |
| O=C1CSC(=S)N1c1ccc(Cl)c(C(F)(F)F)c1 | 98.3 |
| CCOC(=O)C(Cc1ccccc1[N+](=O)[O-])C(=O)OCC | 20.5 |
| Cc1c2ccccc2c(C=O)c2ccccc12 | 87.4 |
| O=C1C(=Cc2ccc(O)cc2)N=C(c2ccccc2)N1n1c(-c2ccccc2)nc2ccccc2c1=O | 91.8 |
| Cc1ccc(S(=O)(=O)N/N=C2/C(=O)c3cccc4cccc2c34)cc1 | 24.8 |
| CCO/C=C1\SC(=S)N(c2cccc(O)c2)C1=O | 70.3 |
| CC(=O)[O-].[O-]c1c(Cl)cc(Cl)cc1/C=N/Nc1ccccn1.[Zn+2] | 97 |

Input line: Bench note: what growth inhibition did O[Si](c1ccccc1)(c1ccccc1)c1ccccc1.O[Si](c1ccccc1)(c1ccccc1)c1ccccc1.O[Si](c1ccccc1)(c1ccccc1)c1ccccc1.[O]=[V] show?
Output line: 72.6

Input line: Now consider CC(C)(C)c1ccc(-c2c3ccccc3cc3ccccc23)cc1 .
Output line: -2.2

Input line: Next entry: CCSSC(=Nc1ccccc1)OCC(C)C
Output line: 80
